Experiment: Circulating (serum/plasma) UCN2 by ELISA
Format: in vivo, mouse
Settings: mouse, plasma, mice, single IP 1 mg/kg, 20 min after injection, n = 8, read-out: circulating concentration of UCN2, average
Experimental: Plasma UCN2 and UCN3 measurements were made via ELISA according to manufacturer’s instructions (Kamiya Biomedical Company, Seattle, WA). Blood was collected via intracardiac stick. For ob/ob and db/db studies, blood was collected during ad lib feeding. For acute UCN2 dosing, blood was collected 20 min after dosing with UCN2 (Bachem, Bubendorf, Switzerland) dissolved in saline.
Where no end group is shown, it is not given here.

# SUBSTANCE, level at time molar at 20 min / nM
data = [
    ("IVLSLDVPIGLLQILLEQARARAAREQATTNARILARVGHC-NH2 (C-terminus assumed) [UCN2, Urocortin 2]", 40),
]
